# testedOn: nAChR α7 receptors (Homo sapiens)
# Sequence (P36544 23-502): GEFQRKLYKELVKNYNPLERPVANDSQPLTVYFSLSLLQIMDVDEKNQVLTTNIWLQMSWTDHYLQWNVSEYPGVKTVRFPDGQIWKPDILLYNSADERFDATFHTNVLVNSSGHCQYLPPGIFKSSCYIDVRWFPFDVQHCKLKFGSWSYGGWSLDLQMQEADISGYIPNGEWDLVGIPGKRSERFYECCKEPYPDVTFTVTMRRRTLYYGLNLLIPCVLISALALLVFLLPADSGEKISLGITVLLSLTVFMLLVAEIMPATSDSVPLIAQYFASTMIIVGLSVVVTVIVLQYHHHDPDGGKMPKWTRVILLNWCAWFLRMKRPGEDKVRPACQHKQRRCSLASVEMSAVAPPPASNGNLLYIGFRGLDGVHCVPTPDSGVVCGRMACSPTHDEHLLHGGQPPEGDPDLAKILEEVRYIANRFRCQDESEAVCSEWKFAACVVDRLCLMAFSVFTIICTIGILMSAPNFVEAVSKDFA
# testName: Positive modulation of acetylcholine-induced currents at wild-type nAChR α7 receptors expressed in Xenopus laevis oocytes (two-electrode voltage clamp)
# assayContext: nAChR α7 in Xenopus oocytes, clamped at -60 mV, 100 μM acetylcholine, compound 0.01-31.6 μM; read-out: calculated EC50 value for positive modulation of 100 μM acetylcholine responses
Measured EC50, listed per entry.
# number only, unit nM dropped from output

{"compound": "Nc1c(-c2ccc(O)cc2)cc(F)cc1-c1ccc(C(F)(F)F)cc1F [Compound 6]", "units": "nM", "EC50": 1400}

Now for a further compound.
Prompt: Which EC50 value belongs to Nc1c(-c2ccc(O)cc2)ncnc1-c1ccc(Cl)cc1Cl [Compound 2] ?
Response: 1200

Sourced from patent US20110105543A1
